IC50 for assorted compounds
System: IGFR-1 (Homo sapiens, UniProt P08069)
Construct: Kinases are expressed as either kinase domains or full length constructs; made in house
Sequence (P08069 31-1367): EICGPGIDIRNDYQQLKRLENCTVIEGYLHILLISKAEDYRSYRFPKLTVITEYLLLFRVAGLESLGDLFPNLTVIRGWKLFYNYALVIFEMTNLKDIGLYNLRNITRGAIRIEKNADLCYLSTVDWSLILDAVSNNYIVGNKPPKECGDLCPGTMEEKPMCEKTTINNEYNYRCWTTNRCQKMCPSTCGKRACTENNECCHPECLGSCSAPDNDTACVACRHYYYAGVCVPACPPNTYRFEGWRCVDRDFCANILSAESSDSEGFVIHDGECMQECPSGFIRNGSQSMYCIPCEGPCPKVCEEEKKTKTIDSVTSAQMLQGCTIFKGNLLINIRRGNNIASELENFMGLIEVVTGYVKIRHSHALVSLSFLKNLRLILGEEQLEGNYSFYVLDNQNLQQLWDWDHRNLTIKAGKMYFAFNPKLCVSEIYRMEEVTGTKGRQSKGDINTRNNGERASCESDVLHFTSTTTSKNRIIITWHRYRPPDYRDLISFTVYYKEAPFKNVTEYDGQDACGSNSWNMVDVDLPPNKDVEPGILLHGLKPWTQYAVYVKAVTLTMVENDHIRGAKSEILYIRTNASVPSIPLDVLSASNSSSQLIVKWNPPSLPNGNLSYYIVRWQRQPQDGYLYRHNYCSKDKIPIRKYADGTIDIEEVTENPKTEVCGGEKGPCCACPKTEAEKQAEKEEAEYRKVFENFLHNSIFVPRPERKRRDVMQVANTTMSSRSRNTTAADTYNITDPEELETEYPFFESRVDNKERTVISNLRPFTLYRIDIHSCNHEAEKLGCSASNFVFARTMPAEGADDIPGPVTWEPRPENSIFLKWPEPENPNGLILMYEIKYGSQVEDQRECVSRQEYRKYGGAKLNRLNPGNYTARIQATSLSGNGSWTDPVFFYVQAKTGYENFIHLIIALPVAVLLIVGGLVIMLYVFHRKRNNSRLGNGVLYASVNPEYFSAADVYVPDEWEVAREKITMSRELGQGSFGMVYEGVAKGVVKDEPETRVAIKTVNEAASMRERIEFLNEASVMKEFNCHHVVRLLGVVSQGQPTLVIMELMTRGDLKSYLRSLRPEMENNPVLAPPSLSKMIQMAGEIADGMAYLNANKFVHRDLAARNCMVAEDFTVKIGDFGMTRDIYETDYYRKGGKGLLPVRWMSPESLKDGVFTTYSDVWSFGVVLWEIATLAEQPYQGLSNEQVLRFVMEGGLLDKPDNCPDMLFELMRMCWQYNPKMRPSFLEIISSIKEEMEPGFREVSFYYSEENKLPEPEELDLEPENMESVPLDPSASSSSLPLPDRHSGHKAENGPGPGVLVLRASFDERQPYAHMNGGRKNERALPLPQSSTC
Procedure Summary: Kinase inhibition assay (33P transfer), IGFR-1
Type: biochemical
Test Parameters: Table 2, kinase inhibition class

In the examples that follow, each entry is paired with its recorded IC50.
{"columns": ["Compound Smiles", "IC50"],
 "data": [
  ["COc1cccc(Nc2ncnc(-c3ccccc3)n2)c1", "> 16.2 µM"],
  ["COc1cccc(NC(=O)Nc2ncnc(Nc3cc(OC)c(OC)c(OC)c3)n2)c1", "0.938 to 5.63 µM"],
  ["COc1cc(Nc2ncnc(-c3ccnc(Cl)c3)n2)cc(OC)c1OC", "> 12 µM"],
  ["COc1cc(Nc2ncnc(Nc3ccncc3)n2)cc(OC)c1OC", "> 12.7 µM"],
  ["COCCOc1ccc(Nc2ncnc(Nc3ccc(C)c(O)c3)n2)cc1OC", "1.01 to 6.04 µM"],
  ["c1csc(-c2ncnc(Nc3ccncc3)n2)c1", "> 17.6 µM"],
  ["COc1cc(Nc2ncnc(Nc3cccc(OC(F)(F)F)c3)n2)cc(OC)c1OC", "< 0.915 µM"],
  ["COc1cc(Nc2ncnc(-n3c(Nc4cccc(C(=O)O)c4)nc4ccccc43)n2)cc(OC)c1OC", "> 8.76 µM"],
  ["COC(=O)c1cccc(Nc2ncnc(Nc3cc(-c4ccco4)n[nH]3)n2)c1", "1.06 to 6.36 µM"],
  ["FC(F)C(F)(F)Oc1cccc(Nc2ncnc(-c3ccnc(Cl)c3)n2)c1", "8.76 to 11.3 µM"]
]}

Assay IGFR-1 (Homo sapiens, UniProt P08069), sample COc1cc(Nc2ncnc(-n3c(N)nc4ccccc43)n2)cc(OC)c1OC , IC50 read: < 1.02 µM

Assay IGFR-1 (Homo sapiens, UniProt P08069), sample COc1cccc(Nc2ncnc(-c3cccs3)n2)n1 , IC50 read: > 15.8 µM

Assay IGFR-1 (Homo sapiens, UniProt P08069), sample COc1cc(Nc2ncnc(NN3CCOCC3)n2)cc(OC)c1OC , IC50 read: 6.62 to 9.66 µM

Assay IGFR-1 (Homo sapiens, UniProt P08069), sample COc1cc(Nc2ncnc(N)n2)cc(OC)c1OC , IC50 read: > 16.2 µM

Assay IGFR-1 (Homo sapiens, UniProt P08069), sample COc1cc(Nc2ncnc(Nc3ccccc3F)n2)cc(OC)c1OC , IC50 read: 1.08 to 6.46 µM

Assay IGFR-1 (Homo sapiens, UniProt P08069), sample CCOc1ccc(Nc2ncnc(-n3c(N)nc4ccccc43)n2)cc1OCC , IC50 read: 6.13 to 8.94 µM

* * *

System: Hck-1 (Homo sapiens, UniProt P08631)
Sequence (P08631 whole entry): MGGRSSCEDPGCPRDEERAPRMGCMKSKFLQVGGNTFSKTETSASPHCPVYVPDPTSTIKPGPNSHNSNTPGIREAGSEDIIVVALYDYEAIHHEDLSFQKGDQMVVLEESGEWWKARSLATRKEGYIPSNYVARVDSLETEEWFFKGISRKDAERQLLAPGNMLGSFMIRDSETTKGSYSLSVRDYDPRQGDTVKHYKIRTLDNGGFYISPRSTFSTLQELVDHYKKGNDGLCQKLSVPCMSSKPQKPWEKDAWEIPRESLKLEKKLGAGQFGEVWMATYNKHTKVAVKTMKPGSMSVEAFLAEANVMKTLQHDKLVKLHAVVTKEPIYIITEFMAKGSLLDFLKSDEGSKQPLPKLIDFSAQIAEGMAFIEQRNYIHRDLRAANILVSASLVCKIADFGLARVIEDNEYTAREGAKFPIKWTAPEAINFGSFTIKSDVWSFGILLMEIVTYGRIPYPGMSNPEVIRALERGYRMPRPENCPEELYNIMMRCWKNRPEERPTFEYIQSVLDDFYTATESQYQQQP
Readout Name: IC50

In the examples that follow, each entry is paired with its recorded IC50.
{"columns": ["Compound Smiles", "IC50"],
 "data": [
  ["COc1cc(Nc2ncnc(-n3c(NCc4ccccn4)nc4ccccc43)n2)cc(OC)c1OCCN1CCOCC1", "> 7.71 µM"],
  ["COc1cc(Nc2ncnc(Nc3ccc(N)cc3)n2)cc(OC)c1OC", "> 12.2 µM"],
  ["COc1ccc(Nc2ncnc(-n3c(N)nc4ccccc43)n2)cc1O", "> 12.9 µM"],
  ["COc1cc(Nc2ncnc(N(C)c3ccc(Cl)cc3)n2)cc(OC)c1OC", "5.97 to 8.71 µM"],
  ["COc1cc(Nc2ncnc(Nc3ccc(O)cc3)n2)cc(OC)c1OC", "> 12.2 µM"]
]}

Assay Hck-1 (Homo sapiens, UniProt P08631), sample COc1cc(Nc2ncnc(-n3c(NCc4ccccc4C)nc4ccccc43)n2)cc(OC)c1OC , IC50 read: > 9.04 µM

Assay Hck-1 (Homo sapiens, UniProt P08631), sample COc1cc(Nc2ncnc(Nc3cc(C)[nH]n3)n2)cc(OC)c1OC , IC50 read: 9.79 to 12.6 µM

Assay Hck-1 (Homo sapiens, UniProt P08631), sample COc1ccc(CNc2nc3ccccc3n2-c2ncnc(Nc3cc(OC)c(OC)c(OC)c3)n2)cc1 , IC50 read: > 8.76 µM

* * *

System: FGFR1 (Homo sapiens)
Construct: Kinases are expressed as either kinase domains or full length constructs; made in house
Sequence (P11362 22-822, species assumed): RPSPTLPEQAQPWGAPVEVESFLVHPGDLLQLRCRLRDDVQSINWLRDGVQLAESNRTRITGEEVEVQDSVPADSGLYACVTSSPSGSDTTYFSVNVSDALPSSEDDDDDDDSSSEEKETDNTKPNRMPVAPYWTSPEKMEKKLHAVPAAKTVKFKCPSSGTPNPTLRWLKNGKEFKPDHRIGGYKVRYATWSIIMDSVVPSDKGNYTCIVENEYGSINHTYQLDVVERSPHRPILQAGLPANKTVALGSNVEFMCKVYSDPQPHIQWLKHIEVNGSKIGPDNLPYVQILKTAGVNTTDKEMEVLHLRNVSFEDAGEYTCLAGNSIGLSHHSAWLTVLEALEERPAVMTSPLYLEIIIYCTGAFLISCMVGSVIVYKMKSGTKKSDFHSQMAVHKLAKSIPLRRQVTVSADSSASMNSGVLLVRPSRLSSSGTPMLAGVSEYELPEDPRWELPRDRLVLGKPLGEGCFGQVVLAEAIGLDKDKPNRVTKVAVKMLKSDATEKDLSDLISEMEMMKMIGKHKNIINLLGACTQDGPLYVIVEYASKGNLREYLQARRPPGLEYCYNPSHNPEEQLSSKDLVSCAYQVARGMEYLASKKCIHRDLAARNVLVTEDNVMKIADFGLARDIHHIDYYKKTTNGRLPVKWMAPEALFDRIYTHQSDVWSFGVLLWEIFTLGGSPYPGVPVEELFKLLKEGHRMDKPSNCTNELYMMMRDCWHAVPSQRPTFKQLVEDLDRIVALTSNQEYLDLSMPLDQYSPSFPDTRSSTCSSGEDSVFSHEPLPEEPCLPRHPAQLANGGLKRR
Procedure Summary: Kinase inhibition assay (33P transfer), FGFR1
Format: biochemical
Test Parameters: read-out: FGFR1-1
Readout Name: IC50

In the examples that follow, each entry is paired with its recorded IC50.
{"columns": ["Compound Smiles", "IC50"],
 "data": [
  ["COc1cc(Nc2ncnc(Nc3ccc(C(N)=O)cc3)n2)cc(OC)c1OC", "6.05 to 8.83 µM"],
  ["Cc1cccc(Nc2ncnc(Nc3ccc(O)cc3)n2)c1", "1.36 to 8.18 µM"],
  ["COc1cc(Nc2ncnc(Nc3cc(-c4ccco4)n[nH]3)n2)cc(OC)c1", "1.05 to 6.33 µM"],
  ["COc1cc(Nc2ncnc(-n3c(NCC(C)C)nc4ccccc43)n2)cc(OC)c1OC", "< 0.89 µM"],
  ["COc1cc(Nc2ncnc(-n3c(Nc4ccc(C(C)C)cc4)nc4ccccc43)n2)cc(OC)c1OC", "4.69 to 6.84 µM"]
]}

// COc1cc(Nc2ncnc(-n3ccc4cc(OCc5ccccc5)ccc43)n2)cc(OC)c1OC : IC50 value = 7.24 to 9.31 µM

// C=CCNc1ncccc1-c1ncnc(Nc2cc(OC)c(OC)c(OC)c2)n1 : IC50 value = 1.01 to 6.08 µM

// COc1cc(Nc2ncnc(N3CCCc4ccc(C(F)(F)F)cc43)n2)cc(OC)c1OC : IC50 value = > 9.75 µM

* * *

System: AKT (Homo sapiens)
Construct: Kinases are expressed as either kinase domains or full length constructs; made in house
Sequence (Q9Y243 whole entry, the tested form may be a part): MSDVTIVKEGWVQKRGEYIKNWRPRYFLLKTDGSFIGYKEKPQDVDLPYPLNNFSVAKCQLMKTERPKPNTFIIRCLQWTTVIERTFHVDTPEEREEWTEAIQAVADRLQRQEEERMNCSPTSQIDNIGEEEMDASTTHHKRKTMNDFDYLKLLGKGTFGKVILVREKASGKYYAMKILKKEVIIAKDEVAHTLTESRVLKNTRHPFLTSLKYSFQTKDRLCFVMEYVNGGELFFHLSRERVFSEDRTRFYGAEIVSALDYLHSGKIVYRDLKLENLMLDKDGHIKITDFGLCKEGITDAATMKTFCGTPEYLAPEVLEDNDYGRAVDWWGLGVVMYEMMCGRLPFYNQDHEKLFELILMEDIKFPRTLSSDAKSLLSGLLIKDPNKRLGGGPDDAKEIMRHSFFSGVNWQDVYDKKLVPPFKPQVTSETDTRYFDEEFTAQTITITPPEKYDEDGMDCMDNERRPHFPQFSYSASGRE
Procedure Summary: Kinase inhibition assay (33P transfer), AKT
Assay type: biochemical
Test Parameters: Table 2, class symbols A-E; read-out: AKT3-1
pIC50: −log10 of the molar value.
pIC50 for assorted molecules

In the examples that follow, each entry is paired with its recorded pIC50.
{"columns": ["Compound Smiles", "pIC50"],
 "data": [
  ["COc1ccc(Nc2ncnc(N(C)c3ccc(Cl)cc3)n2)cc1OC", "< 4.92"],
  ["COC(=O)c1ccc(-c2cc(Nc3ncnc(Nc4cc(Cl)cc(Cl)c4)n3)[nH]n2)cc1", "< 5.01"],
  ["c1ccc(Cn2ncc3cc(Nc4ncnc(Nc5ccc6ncsc6c5)n4)ccc32)cc1", "> 6.05"],
  ["Cc1ccc(-c2cc(Nc3ncnc(Nc4cc(C)ccc4C)n3)[nH]n2)cc1", "< 4.92"],
  ["COc1ccc(Nc2ncnc(N(C)c3ccc([N+](=O)[O-])cc3)n2)cc1OC", "< 4.93"]
]}

Assay AKT (Homo sapiens), sample COc1ccc(Nc2ncnc(Nc3ccc(F)c(F)c3)n2)cc1OC , pIC50 read: < 4.90

* * *

System: UniProt P07948
Sequence (P07948 whole entry, species assumed): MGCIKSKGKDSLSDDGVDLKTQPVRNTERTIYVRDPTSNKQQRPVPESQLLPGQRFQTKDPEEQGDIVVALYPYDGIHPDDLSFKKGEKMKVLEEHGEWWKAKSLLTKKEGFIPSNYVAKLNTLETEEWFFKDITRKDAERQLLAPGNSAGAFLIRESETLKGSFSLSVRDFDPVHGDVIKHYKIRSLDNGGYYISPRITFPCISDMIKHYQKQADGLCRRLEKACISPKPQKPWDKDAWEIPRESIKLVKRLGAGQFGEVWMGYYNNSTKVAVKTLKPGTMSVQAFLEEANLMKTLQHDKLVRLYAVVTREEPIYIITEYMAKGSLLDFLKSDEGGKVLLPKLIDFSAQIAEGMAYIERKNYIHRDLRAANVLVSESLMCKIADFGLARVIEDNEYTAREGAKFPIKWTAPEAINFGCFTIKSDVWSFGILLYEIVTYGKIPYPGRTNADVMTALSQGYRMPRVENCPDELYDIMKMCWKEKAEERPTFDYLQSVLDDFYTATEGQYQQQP
pIC50: −log10 of the molar value.
Readout Name: pIC50

In the examples that follow, each entry is paired with its recorded pIC50.
{"columns": ["Compound Smiles", "pIC50"],
 "data": [
  ["CCc1cccc(Nc2ncnc(-n3c(N)nc4ccccc43)n2)c1", "4.98 to 5.14"],
  ["COc1cc(Nc2ncnc(Nc3ccc(C(C)C)cc3)n2)cc(OC)c1OC", "5.22 to 6.00"],
  ["COc1cc(Nc2ncnc(Nc3ccc4[nH]ncc4c3)n2)cc(OC)c1OC", "> 5.99"]
]}

Assay UniProt P07948, sample C#Cc1cccc(Nc2ncnc(Nc3cc(OC)c(OC)c(OC)c3)n2)c1 , pIC50 read: > 5.97

Assay UniProt P07948, sample COc1ccc(Nc2ncnc(-n3c(N)nc4ccccc43)n2)cc1 , pIC50 read: 4.98 to 5.14

* * *

System: IGFR-1 (Homo sapiens)
Construct: Kinases are expressed as either kinase domains or full length constructs; made in house
Procedure Summary: Kinase inhibition assay, IGFR-1 (Table 2)
Type: biochemical
Test Parameters: Table 2, kinase inhibition class
pIC50: −log10 of the molar value.
pIC50 for assorted compounds

In the examples that follow, each entry is paired with its recorded pIC50.
{"columns": ["Compound", "Result"],
 "data": [
  ["CN(c1cccc(Cl)c1)c1ncnc(Nc2cccc(Cc3nnn[nH]3)c2)n1 [Compound 720]", "< 4.94"],
  ["NC(=O)c1ccccc1Nc1ncnc(-n2c(N)nc3ccccc32)n1 [Compound 473]", "5.00 to 5.16"],
  ["COc1ccc(Nc2ncnc(N(C)c3cccc(Cl)c3)n2)cc1 [Compound 743]", "< 4.88"],
  ["COc1ccc(CNc2nc3ccccc3n2-c2ncnc(Nc3cccc(CC(=O)O)c3)n2)cc1 [Compound 534]", "< 5.03"]
]}

// CCN(c1cccc(C)c1)c1ncnc(Nc2cc(OC)c(OC)c(OC)c2)n1 [Compound 537] : pIC50 value = 5.22 to 6.00
